Tgt: FAAH (Rattus norvegicus, UniProt P97612)
Construct: Preparation of Rat Brain Membranes Preparations (FAAH Enzyme Solution); from tissue; host or cells: rat cerebrum (brain membrane preparation)
Sequence (P97612 whole entry): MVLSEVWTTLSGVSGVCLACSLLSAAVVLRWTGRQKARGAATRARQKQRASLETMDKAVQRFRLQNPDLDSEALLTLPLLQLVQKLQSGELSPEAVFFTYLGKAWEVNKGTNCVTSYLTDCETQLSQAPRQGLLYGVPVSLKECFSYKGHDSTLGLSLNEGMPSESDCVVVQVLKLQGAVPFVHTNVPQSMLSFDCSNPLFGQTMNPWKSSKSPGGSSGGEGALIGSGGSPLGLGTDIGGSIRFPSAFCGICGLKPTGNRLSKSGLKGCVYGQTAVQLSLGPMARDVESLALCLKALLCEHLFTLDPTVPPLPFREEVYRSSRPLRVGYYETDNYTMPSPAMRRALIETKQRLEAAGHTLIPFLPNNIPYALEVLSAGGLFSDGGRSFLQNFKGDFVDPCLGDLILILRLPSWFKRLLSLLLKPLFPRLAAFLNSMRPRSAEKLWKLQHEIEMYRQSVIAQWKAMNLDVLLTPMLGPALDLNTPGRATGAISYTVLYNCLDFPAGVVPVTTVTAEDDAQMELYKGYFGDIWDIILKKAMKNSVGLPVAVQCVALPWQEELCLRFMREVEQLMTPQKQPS
Assay Remarks: Determination of FAAH inhibitory activity in rat (rat brain membrane preparations, [3H]-anandamide hydrolysis)
Type: biochemical
Condition Info: rat brain membrane preparations; read-out: FAAH Inhibition IC50
pIC50: −log10 of the molar value.
// label = class 1 if pIC50 is not less than 8, otherwise class 0

Answered examples (6):
Cn1c(=O)n(C(=O)N2CC(c3ccccc3)C2)c2nc(C3CC3)ncc21 [Example 631] : class 0
Cn1c(=O)n(C(=O)N2CC(c3cccc(F)c3)C2)c2cnc(C3CC3)nc21 [compound 622] : class 1
CCCc1ncc2c(n1)n(C)c(=O)n2C(=O)N1CC(c2ccc(F)cc2)C1 [compound 624] : class 0
CCCn1c(=O)n(C(=O)N(C)C)c2nc(CCc3ccc(F)cc3)ncc21 [Example 648] : class 0
CCc1ncc2c(n1)n(C(=O)N1CC(c3ccccc3)C1)c(=O)n2C [Example 634] : class 0
CCc1ncc2c(n1)n(C(=O)N1CC(c3cccc(F)c3)C1)c(=O)n2C [Example 635] : class 0

Switching to the query record.
// query Confirm if pIC50 reported for the compound Cn1c(=O)n(C(=O)N2CCC2)c2nc(CCc3ccc(OC(F)(F)F)cc3)ncc21 [compound 609] is 8 or above.
// result class 1

* * *

Tgt: FAAH (Rattus norvegicus, UniProt P97612)
Construct: Preparation of Rat Brain Membranes Preparations (FAAH Enzyme Solution); from tissue; host or cells: rat cerebrum (brain membrane preparation)
Assay Remarks: Determination of FAAH inhibitory activity in rat (rat brain membrane preparations, [3H]-anandamide hydrolysis)
Assay type: biochemical
Condition Info: rat brain membrane preparations; 100 nM test substance; read-out: FAAH Inhibition, Inhibition Rate at 100 nM
Protocol: Determination of FAAH Inhibitory Activity in Rat The preparation of rat brain membranes preparations and the determination of FAAH inhibitory activity were carried out according to the Jonsson et al. method [Br. J. Pharmacol., 133, 1263 (2001)]. (1) Preparation of Rat Brain Membranes Preparations (FAAH Enzyme Solution) The cerebrum was extracted from rats and was freeze-stored at −80° C. […]
Quick reference for inhibition at 0.1 µM among some compounds
Unit % implied. Number only.

Some solved cases for reference:
Cn1c(=O)n(C(=O)N2CCC2)c2nc(-c3ccccc3)ncc21 : 42
CCOc1cccc(CCc2ncc3c(n2)n(C(=O)N(C)C)c(=O)n3C)c1 : 47
Cn1c(=O)n(C(=O)N2CCCC2)c2cnc(/C=C/c3ccccc3)nc21 : 100
CN(C)C(=O)n1c(=O)n(C)c2cnc(-c3ccc(C(F)(F)F)cc3)nc21 : 83
Cn1c(=O)n(C(=O)N2CCCC2)c2cnc(Cc3cc(F)cc(F)c3)nc21 : 96

Entry Cn1c(=O)n(C(=O)N2CCCC2)c2nc(-c3ccccc3)ncc21 — recorded inhibition at 0.1 µM = 91

Entry COc1cccc(N2CCN(C(=O)n3c(=O)n(C)c4nc(-c5ccccc5)ncc43)CC2)c1 — recorded inhibition at 0.1 µM = 98

Entry Cc1cc(C)cc(CCc2ncc3c(n2)n(C(=O)N(C)C)c(=O)n3C)c1 — recorded inhibition at 0.1 µM = 102

Entry Cn1c(=O)n(C(=O)N2CCCC2)c2nc(CCc3ccccc3)ncc21 — recorded inhibition at 0.1 µM = 93

Entry CN(C)C(=O)n1c(=O)n(C)c2nc(-c3ccccc3)ncc21 — recorded inhibition at 0.1 µM = 102

* * *

Tgt: FAAH (Rattus norvegicus)
Construct: Preparation of Rat Brain Membranes Preparations (FAAH Enzyme Solution); from tissue; host or cells: rat cerebrum (brain membrane preparation)
Assay Remarks: Determination of FAAH inhibitory activity in rat (rat brain membrane preparations, [3H]-anandamide hydrolysis)
Assay type: biochemical
Condition Info: rat brain membrane preparations; 100 nM test substance; read-out: FAAH Inhibition, Inhibition Rate at 100 nM
Property Label: inhibition at 0.1 µM (%)
Unit % implied. Number only.

CN(C)C(=O)n1c(=O)n(C)c2cnc(CCc3c(F)cccc3F)nc21 : 40

Record Cn1c(=O)n(C(=O)N2CCCC2)c2cnc(Cc3ccc(F)c(F)c3)nc21 ; system FAAH (Rattus norvegicus); inhibition at 0.1 µM = 96

Record Cn1c(=O)n(C(=O)N2CCC2)c2cnc(Cc3cccc(F)c3)nc21 ; system FAAH (Rattus norvegicus); inhibition at 0.1 µM = 80

Record CN(CCOc1ccc(Cl)cc1)C(=O)n1c(=O)n(C)c2nc(-c3cccnc3)ncc21 ; system FAAH (Rattus norvegicus); inhibition at 0.1 µM = 99

Record COCc1ncc2c(n1)n(C)c(=O)n2C(=O)N1CC(c2cccc(F)c2)C1 ; system FAAH (Rattus norvegicus); inhibition at 0.1 µM = 88

Record Cc1ccccc1Cc1ncc2c(n1)n(C)c(=O)n2C(=O)N1CCCC1 ; system FAAH (Rattus norvegicus); inhibition at 0.1 µM = 88

Record Cn1c(=O)n(C(=O)N2CCCC2)c2cnc(-c3ccc(F)cc3F)nc21 ; system FAAH (Rattus norvegicus); inhibition at 0.1 µM = 99

Record COCc1ncc2c(n1)n(C)c(=O)n2C(=O)N1CC(c2ccccc2OC)C1 ; system FAAH (Rattus norvegicus); inhibition at 0.1 µM = 96

Record Cc1ccc(-c2ncc3c(n2)n(C(=O)N2CCCC2)c(=O)n3C)cc1 ; system FAAH (Rattus norvegicus); inhibition at 0.1 µM = 90

Record Cn1c(=O)n(C(=O)N2CCCC2)c2nc(-c3ccc(F)cc3)ncc21 ; system FAAH (Rattus norvegicus); inhibition at 0.1 µM = 97

Record CN(C)C(=O)n1c(=O)n(C)c2cnc(CCc3ccccc3F)nc21 ; system FAAH (Rattus norvegicus); inhibition at 0.1 µM = 91

Record CCCCOc1ccc(-c2ncc3c(n2)n(C(=O)N2CCC2)c(=O)n3C)cc1 ; system FAAH (Rattus norvegicus); inhibition at 0.1 µM = 103

Record CCN(C)C(=O)n1c(=O)n(C)c2cnc(-c3cccc(OC(F)F)c3)nc21 ; system FAAH (Rattus norvegicus); inhibition at 0.1 µM = 95

Record Cn1c(=O)n(C(=O)N2CCC2)c2cnc(COc3cccc(OC(F)(F)F)c3)nc21 ; system FAAH (Rattus norvegicus); inhibition at 0.1 µM = 56

Record Cn1c(=O)n(C(=O)N2CCCC2)c2cnc(-c3cc4ccccc4o3)nc21 ; system FAAH (Rattus norvegicus); inhibition at 0.1 µM = 99

* * *

Tgt: FAAH (Rattus norvegicus)
Construct: Preparation of Rat Brain Membranes Preparations (FAAH Enzyme Solution); from tissue; host or cells: rat cerebrum (brain membrane preparation)
Assay Remarks: Determination of FAAH inhibitory activity in rat (rat brain membrane preparations, [3H]-anandamide hydrolysis)
Type: biochemical
Condition Info: rat brain membrane preparations; 100 nM test substance; read-out: FAAH Inhibition, Inhibition Rate at 100 nM
Method: Determination of FAAH Inhibitory Activity in Rat The preparation of rat brain membranes preparations and the determination of FAAH inhibitory activity were carried out according to the Jonsson et al. method [Br. J. Pharmacol., 133, 1263 (2001)]. (1) Preparation of Rat Brain Membranes Preparations (FAAH Enzyme Solution) The cerebrum was extracted from rats and was freeze-stored at −80° C. […]
Property Label: inhibition at 0.1 µM
Please format your answer as a value with the unit trailing.

COc1cccc(-c2ncc3c(n2)n(C(=O)N2CCC2)c(=O)n3C)c1 : 76%
Cn1c(=O)n(C(=O)N2CCCC2)c2cnc(-c3ccccc3)nc21 : 100%
Cn1c(=O)n(C(=O)N2CCCC2)c2cnc(Cc3ccc(C#N)cc3)nc21 : 91%
CN(CCc1ccc(Cl)cc1)C(=O)n1c(=O)n(C)c2nc(C3CCCCC3)ncc21 : 96%
CCOc1ccc(-c2ncc3c(n2)n(C(=O)N(C)C)c(=O)n3C)cc1 : 45%
CN(C)C(=O)n1c(=O)n(C)c2cnc(CCc3cccc(OCC4CC4)c3)nc21 : 84%
Cc1ccccc1N1CCN(C(=O)n2c(=O)n(C)c3nc(-c4ccccc4)ncc32)CC1 : 94%

Next item in the queue.
Entry CN(CCOc1ccc(Cl)cc1)C(=O)n1c(=O)n(C)c2nc(-c3ccncc3)ncc21 — recorded inhibition at 0.1 µM = 102%

* * *

Tgt: FAAH (Rattus norvegicus, UniProt P97612)
Construct: Preparation of Rat Brain Membranes Preparations (FAAH Enzyme Solution); from tissue; host or cells: rat cerebrum (brain membrane preparation)
Assay Remarks: Determination of FAAH inhibitory activity in rat (rat brain membrane preparations, [3H]-anandamide hydrolysis)
Format: biochemical
Condition Info: rat brain membrane preparations; 100 nM test substance; read-out: FAAH Inhibition, Inhibition Rate at 100 nM
Quick reference for inhibition at 0.1 µM among some compounds
Unit % implied. Number only.

Some solved cases for reference:
Cc1ccccc1-c1ncc2c(n1)n(C)c(=O)n2C(=O)N1CCCC1 : 78
COc1cccc(-c2ncc3c(n2)n(C)c(=O)n3C(=O)N(C)Cc2cccc(Cl)c2)c1 : 87
COc1cccc(-c2ncc3c(n2)n(C)c(=O)n3C(=O)N(C)CCC2=CCCCC2)c1 : 110
Cn1c(=O)n(C(=O)N2CCCC2)c2cnc(-c3cccc(F)c3)nc21 : 101
COc1cccc(-c2ncc3c(n2)n(C)c(=O)n3C(=O)N2CCCCC2)c1 : 99

Entry CN(C)C(=O)n1c(=O)n(C)c2cnc(CCc3ccc(C4CC4)cc3)nc21 — recorded inhibition at 0.1 µM = 85

Entry CN(C)C(=O)n1c(=O)n(C)c2cnc(CCc3ccc(OC4CCC4)cc3)nc21 — recorded inhibition at 0.1 µM = 80

Entry COc1cccc(-c2ncc3c(n2)n(C)c(=O)n3C(=O)N(C)CCc2ccc(Cl)c(Cl)c2)c1 — recorded inhibition at 0.1 µM = 108
